The origin of these recorded values is PubChem BioAssay AID1347051.

protocolDescription: Natriuretic polypeptide receptor (hNpr1) antagonism - Counterscreen GloSensor control cell line; also: nearly all actives have a fitted effect of over 70% in size
conditionContext: HEK293 GloSensor cGMP, SNP-stimulated, luminescence; series mostly up to 57.6 µM
In all, about 1,400 compounds went through this assay and about 980 (70%) were called active. About 16% were inconclusive and are not listed. Calls follow the shape of the full dose curve. So high a share suggests a set chosen from earlier hits. A selection follows.
I would appreciate it if you answered using one of these outcomes: active, inactive

Here's what some known entries look like.
smilesRepr | category
COc1cc2c(cc1Oc1cccc(N(C)C)c1)NC(=O)C21CCN(c2cnccn2)CC1 | active
CCC(CC)c1cc([C@H]2CN3CC[C@H]2C[C@@H]3CNC(=O)NCc2ccccc2)nc(-c2ccncc2)n1 | inactive

Query :: Name the outcome recorded for `CCC(CC)c1cc([C@H]2CN3CC[C@H]2C[C@@H]3CNS(=O)(=O)c2ccccc2C#N)nc(-c2ccncc2)n1` in the assay.
Result :: inactive

Query :: Further, for `CCC(CC)c1cc([C@H]2CN3CC[C@H]2C[C@@H]3CNS(=O)(=O)Cc2ccccc2)nc(-c2ccncc2)n1` ?
Result :: inactive

Query :: What do you get for `COc1cc2c(cc1Oc1cccc(N(C)C)c1)NC(=O)C21CCN(Cc2ccccn2)CC1` ?
Result :: active
